The reported measurements were obtained from patent US9469615B2.

biological target: hCRTH2 (Homo sapiens, UniProt Q9Y5Y4); construct: expressed in transfected cells; host or cells: HEK (human embryonic kidney) cells expressing hCRTH2; membrane preparation; assay: Radioligand binding assay ([3H]PGD2 competition, HEK-hCRTH2 membranes); conditions: [3H]PGD2 competition, Table B
Sequence (Q9Y5Y4 whole entry): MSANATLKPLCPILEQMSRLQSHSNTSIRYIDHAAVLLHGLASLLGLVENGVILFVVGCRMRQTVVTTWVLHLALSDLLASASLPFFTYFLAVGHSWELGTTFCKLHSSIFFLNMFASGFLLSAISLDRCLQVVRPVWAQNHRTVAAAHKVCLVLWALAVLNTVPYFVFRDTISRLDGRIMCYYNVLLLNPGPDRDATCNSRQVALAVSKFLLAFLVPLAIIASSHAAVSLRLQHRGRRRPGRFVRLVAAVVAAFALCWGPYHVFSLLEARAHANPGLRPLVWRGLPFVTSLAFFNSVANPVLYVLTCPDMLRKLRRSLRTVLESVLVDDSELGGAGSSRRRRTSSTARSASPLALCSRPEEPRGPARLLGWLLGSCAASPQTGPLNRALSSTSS
compounds and their reported Ki
MEASURED PROPERTY: Ki

COMPOUND | MEASURED PROPERTY | RECORDED RESULT
O=C(O)CCCCc1nc2cc(C(=O)NCC3(c4ccc(OC(F)(F)F)cc4)CC3)ccc2nc1-c1ccc(Cl)cc1 [compound 317] | Ki | 2.1 to 20 nM
O=C(O)CCCCc1nc2cc(C(=O)N3C[C@@H]4C[C@H]3CN4c3cccc(F)c3)ccc2nc1-c1ccc(Cl)cc1 [compound 677] | Ki | 2.1 to 20 nM
Cc1nc(CN2CCN(C(=O)c3ccc4nc(-c5ccc(Cl)cc5)c(CCCCC(=O)O)nc4c3)CC2)cs1 [compound 670] | Ki | 2.1 to 20 nM
O=C(O)CCCCc1nc2cc(C(=O)N[C@@H]3c4ccccc4C[C@H]3O)ccc2nc1-c1ccc(F)cc1 [compound 510] | Ki | 20.1 to 200 nM
C[C@@H](CCCc1nc2cc(C(=O)N[C@@H]3CCCc4cc(Cl)ccc43)ccc2nc1-c1ccc(F)cc1)C(=O)O [compound 519] | Ki | 2.1 to 20 nM
O=C(O)CCCCc1nc2cc(C(=O)N3CCN(c4nc5ccccc5s4)CC3)ccc2nc1-c1ccc(Cl)cc1 [compound 602] | Ki | 0.1 to 2 nM
O=C(O)CCCCc1nc2cc(C(=O)N[C@H]3CCOc4ccccc43)ccc2nc1-c1ccc(F)cc1 [compound 492] | Ki | 2.1 to 20 nM
